- SYSTEM: hTLR7 (Homo sapiens)
- Construct: expressed in transfected cells; host or cells: HEK-Blue hTLR7 reporter cell line
- EXPERIMENT_NOTES: HEK-Blue hTLR7 reporter assay (NF-kB-induced SEAP, Quanti-Blue)
- Assay type: cell-based
- DETAILS: Table 11, TLR7 activities; read-out: EC50
OUTCOME_MEASURE: EC50 (µM)

I. CCCCOc1nc(N)c2[nH]c(=O)n(Cc3ccc(CN4CCC(CCNC(=O)c5cc(F)c(N)c(F)c5)CC4)cc3)c2n1 [AXC-887]
II. CCCCOc1nc(N)c2[nH]c(=O)n(Cc3ccc(CN4CCC(CCNC(C)=O)CC4)cc3)c2n1 [AXC-886]
III. CCCCOc1nc(N)c2[nH]c(=O)n(Cc3ccc(CNCCCCCCN)cc3)c2n1 [AXC-881]
Sequence the entries by EC50, beginning with the highest number. Put the labels in the requested order and list them out.
III, II, I

* * *

- SYSTEM: hTLR7 (Homo sapiens, UniProt Q9NYK1)
- Construct: expressed in transfected cells; host or cells: HEK-Blue hTLR7 reporter cell line
- Sequence (Q9NYK1 27-1049): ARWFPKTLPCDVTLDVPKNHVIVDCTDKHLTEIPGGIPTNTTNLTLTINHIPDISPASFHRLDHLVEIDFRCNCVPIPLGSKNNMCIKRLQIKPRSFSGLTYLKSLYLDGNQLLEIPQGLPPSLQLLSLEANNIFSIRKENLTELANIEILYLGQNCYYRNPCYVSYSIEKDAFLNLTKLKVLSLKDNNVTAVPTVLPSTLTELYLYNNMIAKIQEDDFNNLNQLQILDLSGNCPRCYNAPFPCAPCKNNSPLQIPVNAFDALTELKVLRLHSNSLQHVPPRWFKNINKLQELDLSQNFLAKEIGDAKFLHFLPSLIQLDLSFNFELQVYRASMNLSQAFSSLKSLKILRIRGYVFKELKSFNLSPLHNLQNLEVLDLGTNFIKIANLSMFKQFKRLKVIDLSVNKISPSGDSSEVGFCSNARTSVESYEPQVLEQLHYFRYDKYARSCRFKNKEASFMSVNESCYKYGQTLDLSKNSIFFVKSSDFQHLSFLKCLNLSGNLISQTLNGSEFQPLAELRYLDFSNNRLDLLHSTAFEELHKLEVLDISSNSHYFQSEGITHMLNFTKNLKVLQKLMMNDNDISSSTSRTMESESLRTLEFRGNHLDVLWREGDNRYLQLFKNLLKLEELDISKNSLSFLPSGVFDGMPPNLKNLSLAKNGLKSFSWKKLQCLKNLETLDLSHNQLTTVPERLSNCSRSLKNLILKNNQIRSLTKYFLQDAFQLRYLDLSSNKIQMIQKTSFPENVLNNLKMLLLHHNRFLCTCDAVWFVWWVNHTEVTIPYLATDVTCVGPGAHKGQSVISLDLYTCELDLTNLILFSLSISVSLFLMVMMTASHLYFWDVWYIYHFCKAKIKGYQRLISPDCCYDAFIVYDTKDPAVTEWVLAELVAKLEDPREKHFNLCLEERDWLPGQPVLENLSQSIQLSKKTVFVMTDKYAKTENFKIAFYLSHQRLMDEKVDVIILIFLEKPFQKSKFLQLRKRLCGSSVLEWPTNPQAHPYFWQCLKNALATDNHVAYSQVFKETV
- EXPERIMENT_NOTES: HEK-Blue hTLR7 reporter assay (NF-kB-induced SEAP, Quanti-Blue)
- Type: cell-based
- DETAILS: Table 18, TLR7, PEG shielding; read-out: EC50
OUTCOME_MEASURE: EC50 (µM)

INSERT INTO results (smiles_entry, outcome_measure, number) VALUES
  ('CCCCOc1nc(N)c2[nH]c(=O)n(Cc3ccc(CN4CCC(CCNC(=O)[C@H](CCCCNC(=O)CON)NC(=O)[C@H](C)NC(=O)[C@@H](N)C(C)C)CC4)cc3)c2n1', 'EC50', 0.434),
  ('CCCCOc1nc(N)c2[nH]c(=O)n(Cc3ccc(CN4CCC(CCNC(=O)[C@H](CCCCNC(=O)CON)NC(=O)CCOCCOCCOCCOCCOCCOCCOCCOCCOCCOCCOCCOCCOCCOCCOCCOCCOCCOCCOCCOCCOCCOCCOCCOC)CC4)cc3)c2n1', 'EC50', 0.398),
  ('CCCCOc1nc(N)c2[nH]c(=O)n(Cc3ccc(CN4CCC(CCNC(=O)[C@H](CCCCNC(=O)CON)NC(=O)OCc5ccc(NC(=O)[C@H](C)NC(=O)[C@@H](NC(=O)CCOCCOCCOCCOCCOCCOCCOCCOCCOCCOCCOCCOCCOCCOCCOCCOCCOCCOCCOCCOCCOCCOCCOCCOC)C(C)C)cc5)CC4)cc3)c2n1', 'EC50', 1.59);

1. CCCCOc1nc(N)c2[nH]c(=O)n(Cc3ccc(CN4CCC(CCNC(=O)[C@H](CCCCNC(=O)CON)NC(=O)OCc5ccc(NC(=O)[C@H](C)NC(=O)[C@@H](NC(C)=O)C(C)C)cc5)CC4)cc3)c2n1
2. CCCCOc1nc(N)c2[nH]c(=O)n(Cc3ccc(CN4CCC(CCNC(=O)[C@@H](N)CCCCNC(=O)CON)CC4)cc3)c2n1
Of the two listed items, which has the higher EC50? First: 1 Second: 2 Refer to your chosen entry by its label in the reply.
1

* * *

- SYSTEM: hTLR7 (Homo sapiens)
- Construct: expressed in transfected cells; host or cells: HEK-Blue hTLR7 reporter cell line
- EXPERIMENT_NOTES: HEK-Blue hTLR7 reporter assay (NF-kB-induced SEAP, Quanti-Blue)
- Type: cell-based
- DETAILS: Table 19, TLR7, drug-linkers with PEG shielding; read-out: EC50
pEC50: −log10 of the molar value.
OUTCOME_MEASURE: pEC50

INSERT INTO results (compound, system, number) VALUES
  ('CCCCNc1nc(N)c2[nH]c(=O)n(Cc3ccc(OCCN(C)C)nc3)c2n1 [DSR-6434, reference compound]', 'hTLR7 (Homo sapiens)', 7.85),
  ('CCCCOc1nc(N)c2[nH]c(=O)n(Cc3ccc(CN4CCC(CCNC(=O)[C@H](CCCCNC(=O)CON)NC(=O)CCCC(=O)NCCOCCOCCOCCOCCOCCOCCOCCOCCOCCOCCOCCOCCOCCOCCOCCOCCOCCOCCOCCOCCOCCOCCOCCOCCOCCOCCOCCOCCOCCOCCOCCOCCOCCOCCOCCOCCOCCOCCOCCOCCOCCOCCOCCOCCOCCOCCOCCOC)CC4)cc3)c2n1', 'hTLR7 (Homo sapiens)', 6.12);

I. CCCCOC(=O)Nc1nc(OCCCC)nc2c1[nH]c(=O)n2Cc1ccc(CN2CCC(CCNC(=O)CON)CC2)cc1
II. CCCCOc1nc(N)c2[nH]c(=O)n(Cc3ccc(CN4CCC(CCNC(=O)[C@H](Cc5ccc(O)cc5)NC(=O)CON)CC4)cc3)c2n1
III. CCCCCC(=O)Nc1nc(OCCCC)nc2c1[nH]c(=O)n2Cc1ccc(CN2CCC(CCN)CC2)cc1
IV. CCCCOc1nc(N)c2[nH]c(=O)n(Cc3ccc(CN4CCC(CCNC(=O)[C@H](CCCCNC(=O)CON)NC(=O)CCOCCOCCOCCOCCOCCOCCOCCOCCOCCOCCOCCOCCOCCOCCOCCOCCOCCOCCOCCOCCOCCOCCOCCOCCOCCOCCOCCOCCOCCOCCOCCOCCOCCOCCOCCOCCOC)CC4)cc3)c2n1
Would you mind ranking these compounds by ascending pEC50? Put the labels in the requested order and list them out.
IV, II, I, III
(IV: 6.16, II: 6.70, I: 6.95, III: 7.71)

* * *

Quick reference: EC50 of the listed items.
- SYSTEM: hTLR7 (Homo sapiens, UniProt Q9NYK1)
- Construct: expressed in transfected cells; host or cells: HEK-Blue hTLR7 reporter cell line
- EXPERIMENT_NOTES: HEK-Blue hTLR7 reporter assay (NF-kB-induced SEAP, Quanti-Blue)
- Assay type: cell-based
- DETAILS: text to Table 11, TLR7; read-out: EC50

INSERT INTO assay_data (smiles_entry, system, result) VALUES
  ('CCCCOc1nc(N)c2[nH]c(=O)n(Cc3ccc(CN4CCC(CCNC(=O)OC(C)(C)C)CC4)cc3)c2n1', 'hTLR7 (Homo sapiens, UniProt Q9NYK1)', '< 10 nM');

Give EC50 (hTLR7 (Homo sapiens, UniProt Q9NYK1)) of the following molecule: CCCCOc1nc(N)c2[nH]c(=O)n(Cc3ccc(CN4CCC(CCNC(=O)c5cc(F)c(N)c(F)c5)CC4)cc3)c2n1
< 10 nM

* * *

- SYSTEM: hTLR7 (Homo sapiens)
- Construct: expressed in transfected cells; host or cells: HEK-Blue hTLR7 reporter cell line
- EXPERIMENT_NOTES: HEK-Blue hTLR7 reporter assay (NF-kB-induced SEAP, Quanti-Blue)
- Type: cell-based
- DETAILS: Table 19, TLR7, drug-linkers with PEG shielding; read-out: EC50
- Description: HEK-Blue™ hTLR7 cells were incubated in HEK-Blue™ Detection medium and stimulated with increasing concentrations of TLR7 or TLR8 or TLR7/8 agonists. […] The EC50 was determined from dose-response curve using Prism Software.
OUTCOME_MEASURE: EC50 (nM)

Answered cases to consult:
INSERT INTO results (smiles_entry, outcome_measure, number) VALUES
  ('CCCCOc1nc(N)c2[nH]c(=O)n(Cc3ccc(CN4CCC(CCNC(=O)[C@@H](CCCCNC(=O)CCOCCOCCOCCOCCOCCOCCOCCOC)NC(=O)CON)CC4)cc3)c2n1', 'EC50', 453),
  ('CCCCOc1nc(N)c2[nH]c(=O)n(Cc3ccc(CN4CCC(CCNC(=O)[C@H](CCCCNC(=O)CCOCCOCCOCCOCCOCCOCCOCCOCCOCCOCCOCCOCCOCCOCCOCCOCCOCCOCCOCCOCCOCCOCCOCCOCCOCCOCCOCCOCCOCCOCCOCCOCCOCCOCCOCCOCCOC)NC(=O)CON)CC4)cc3)c2n1', 'EC50', 842),
  ('CCCCOc1nc(N)c2[nH]c(=O)n(Cc3ccc(CN4CCC(CCNC(=O)[C@@H](CCCCNC(=O)CCOCCOCCOCCOCCOCCOCCOCCOCCOCCOCCOCCOCCOCCOCCOCCOCCOCCOCCOCCOCCOCCOCCOCCOC)NC(=O)CON)CC4)cc3)c2n1', 'EC50', 551);

1. CCCCOc1nc(N)c2[nH]c(=O)n(Cc3ccc(CN4CCC(CCNC(=O)[C@H](CCCCNC(=O)CON)NC(=O)CCOCCOCCOCCOCCOCCOCCOCCOCCOCCOCCOCCOC)CC4)cc3)c2n1
2. CCCCOc1nc(NC(C)=O)c2[nH]c(=O)n(Cc3ccc(CN4CCC(CCN)CC4)cc3)c2n1
Of the two listed items, which has the higher EC50? First: 1 Second: 2 Refer to your chosen entry by its label in the reply.
1
(1: 644 nM, 2: 10.3 nM)

Provenance of the data: patent US20230302150A1
